# measured.target: GSK-3β (Homo sapiens)
# Sequence (P49841 whole entry): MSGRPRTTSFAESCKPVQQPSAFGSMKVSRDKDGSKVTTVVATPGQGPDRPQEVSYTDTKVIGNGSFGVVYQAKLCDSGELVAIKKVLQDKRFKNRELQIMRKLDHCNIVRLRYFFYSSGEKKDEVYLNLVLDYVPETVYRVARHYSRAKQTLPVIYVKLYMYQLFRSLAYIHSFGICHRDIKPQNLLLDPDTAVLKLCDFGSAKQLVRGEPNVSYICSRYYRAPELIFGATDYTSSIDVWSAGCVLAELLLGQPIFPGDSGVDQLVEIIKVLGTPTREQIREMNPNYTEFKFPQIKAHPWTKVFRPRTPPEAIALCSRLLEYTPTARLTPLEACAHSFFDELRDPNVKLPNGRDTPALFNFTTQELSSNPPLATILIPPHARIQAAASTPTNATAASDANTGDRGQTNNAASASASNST
# reported IC50; entries follow
assay.readout: IC50 (nM)

[
  {
    "molecule": "Cc1cc(C#N)cc(C)c1Oc1nc(Nc2ccc(C#N)cc2)nc(N)c1Br [Etravirine]",
    "measured.target": "GSK-3β (Homo sapiens)",
    "assay.readout": "IC50",
    "quantity.unit": "nM",
    "relation.symbol": "=",
    "reported.measurement": 619
  },
  {
    "molecule": "Cn1c(Cn2ccc(C(F)(F)F)c(Oc3cc(Cl)cc(C#N)c3)c2=O)n[nH]c1=O [Doravirine]",
    "measured.target": "GSK-3β (Homo sapiens)",
    "assay.readout": "IC50",
    "quantity.unit": "nM",
    "relation.symbol": ">",
    "reported.measurement": 20000
  },
  {
    "molecule": "Cc1ccnc2c1NC(=O)c1cccnc1N2C1CC1 [Nevirapine]",
    "measured.target": "GSK-3β (Homo sapiens)",
    "assay.readout": "IC50",
    "quantity.unit": "nM",
    "relation.symbol": "=",
    "reported.measurement": 1670
  },
  {
    "molecule": "O=C1Nc2ccc(Cl)cc2[C@@](C#CC2CC2)(C(F)(F)F)O1 [Efavirenz]",
    "measured.target": "GSK-3β (Homo sapiens)",
    "assay.readout": "IC50",
    "quantity.unit": "nM",
    "relation.symbol": ">",
    "reported.measurement": 20000
  },
  {
    "molecule": "Cc1cc(/C=C/C#N)cc(C)c1Nc1ccnc(Nc2ccc(C#N)cc2)n1 [Rilpivirine]",
    "measured.target": "GSK-3β (Homo sapiens)",
    "assay.readout": "IC50",
    "quantity.unit": "nM",
    "relation.symbol": "=",
    "reported.measurement": 502
  }
]

###

# measured.target: UniProt P03366
# protocol.description: NNRTI assay
# Format: biochemical
pIC50: −log10 of the molar value.

[
  {
    "molecule": "Cc1cc(/C=C/C#N)cc(C)c1Nc1ccnc(Nc2ccc(C#N)cc2)n1 [Rilpivirine]",
    "measured.target": "UniProt P03366",
    "pIC50": 6.80
  }
]

Values compiled from paper PMC12107553.
